System: HCT-116
Experiment: Cytotoxicity against human HCT116 cells after 48 hrs by […]
Format: functional, cell-based
Conditions: HCT-116, 48 h
Reported IC50 is given for each of the following compounds.
Numeric only. Scale: µM

TEST_SMILES: C=C[C@@H]1C(=C)CC[C@H]2[C@H]1CC(=O)[C@@]1(O)[C@@]3(C)C(=O)O[C@H]3CC[C@]21C
IC50 (µM): 6.23

Given C=C[C@@H]1C(=C)CC[C@H]2[C@H]1C[C@H]1OC(=O)[C@@]3(C)[C@H](OC(C)=O)CC[C@@]2(C)[C@@]13O , respond with its IC50.
37.3
